- TESTED_SYSTEM: T1, TRCW5 antigen (CD3δε-Fc-Avi) (biotinylated (site not stated))
- T1 construct: also called recombinant CD3
- T1 sequence (chain, as listed by the source mutant limits assumed): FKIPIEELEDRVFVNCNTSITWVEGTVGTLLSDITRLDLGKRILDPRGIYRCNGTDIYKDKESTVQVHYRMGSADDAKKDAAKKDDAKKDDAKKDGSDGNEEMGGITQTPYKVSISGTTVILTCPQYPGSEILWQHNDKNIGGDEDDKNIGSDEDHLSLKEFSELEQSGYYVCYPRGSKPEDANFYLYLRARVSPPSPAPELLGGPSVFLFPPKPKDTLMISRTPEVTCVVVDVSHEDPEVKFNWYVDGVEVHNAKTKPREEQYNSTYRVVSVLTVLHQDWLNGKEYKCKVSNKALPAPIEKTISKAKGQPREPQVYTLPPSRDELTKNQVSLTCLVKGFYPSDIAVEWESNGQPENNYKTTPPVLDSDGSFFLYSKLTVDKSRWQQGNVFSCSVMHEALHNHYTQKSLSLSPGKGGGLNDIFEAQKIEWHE
- EXPERIMENTAL_DETAILS: ELISA
Values of EC50 strictly less than 10 nM map to label 1, and values of at least 10 nM map to label 0.

BINDER	GROUP_LABEL
CD3B2051 N106P (scFv) scFv: QVQLVQSGAEVKKPGSSVKVSCKASGYTFTRSTMHWVKQAPGQGLEWMGYINPSSAYTNYNQKFQGRVTLTADKSTSTAYMELSSLRSEDTAVYYCASPQVHYDYPGFPYWGQGTLVTVSSGGSEGKSSGSGSESKSTGGSEIVLTQSPATLSASPGERVTLSCSASSSVSYMNWYQQKPGQAPRRLIYDSSKLASGVPARFSGSGSGRDYTLTISSLEPEDFAVYYCQQWSRNPPTFGGGTKVEIK	label 0
CD3B2051 N106G (scFv) scFv: QVQLVQSGAEVKKPGSSVKVSCKASGYTFTRSTMHWVKQAPGQGLEWMGYINPSSAYTNYNQKFQGRVTLTADKSTSTAYMELSSLRSEDTAVYYCASPQVHYDYGGFPYWGQGTLVTVSSGGSEGKSSGSGSESKSTGGSEIVLTQSPATLSASPGERVTLSCSASSSVSYMNWYQQKPGQAPRRLIYDSSKLASGVPARFSGSGSGRDYTLTISSLEPEDFAVYYCQQWSRNPPTFGGGTKVEIK	label 0
CD3B2030 N106F (scFv) scFv: QVQLVQSGAEVKKPGSSVKVSCKASGYTFTRSTMHWVKQAPGQGLEWIGYINPSSAYTNYNQKFQGRVTLTADKSTSTAYMELSSLRSEDTAVYYCASPQVHYDYFGFPYWGQGTLVTVSSGGSEGKSSGSGSESKSTGGSEIVLTQSPATLSASPGERVTLSCSASSSVSYMNWYQQKPGQAPRRWIYDSSKLASGVPARFSGSGSGRDYTLTISSLEPEDFAVYYCQQWSRNPPTFGGGTKVEIK	label 1
CD3B2089 G107F (scFv) scFv: QVQLVQSGAEVKKPGSSVKVSCKASGYTFTRSTMHWVRQAPGQGLEWMGYINPSSAYTNYAQKFQGRVTLTADKSTSTAYMELSSLRSEDTAVYYCASPQVHYDYNFFPYWGQGTLVTVSSGGSEGKSSGSGSESKSTGGSEIVLTQSPATLSASPGERVTLSCSASSSVSYMNWYQQKPGQAPRRWIYDSSKLASGVPARFSGSGSGRDYTLTISSLEPEDFAVYYCQQWSRNPPTFGGGTKVEIK	label 0
CD3B2051 N106S (scFv) scFv: QVQLVQSGAEVKKPGSSVKVSCKASGYTFTRSTMHWVKQAPGQGLEWMGYINPSSAYTNYNQKFQGRVTLTADKSTSTAYMELSSLRSEDTAVYYCASPQVHYDYSGFPYWGQGTLVTVSSGGSEGKSSGSGSESKSTGGSEIVLTQSPATLSASPGERVTLSCSASSSVSYMNWYQQKPGQAPRRLIYDSSKLASGVPARFSGSGSGRDYTLTISSLEPEDFAVYYCQQWSRNPPTFGGGTKVEIK	label 0
CD3B2030 N106H (scFv) scFv: QVQLVQSGAEVKKPGSSVKVSCKASGYTFTRSTMHWVKQAPGQGLEWIGYINPSSAYTNYNQKFQGRVTLTADKSTSTAYMELSSLRSEDTAVYYCASPQVHYDYHGFPYWGQGTLVTVSSGGSEGKSSGSGSESKSTGGSEIVLTQSPATLSASPGERVTLSCSASSSVSYMNWYQQKPGQAPRRWIYDSSKLASGVPARFSGSGSGRDYTLTISSLEPEDFAVYYCQQWSRNPPTFGGGTKVEIK	label 0
CD3B2030 N106K (scFv) scFv: QVQLVQSGAEVKKPGSSVKVSCKASGYTFTRSTMHWVKQAPGQGLEWIGYINPSSAYTNYNQKFQGRVTLTADKSTSTAYMELSSLRSEDTAVYYCASPQVHYDYKGFPYWGQGTLVTVSSGGSEGKSSGSGSESKSTGGSEIVLTQSPATLSASPGERVTLSCSASSSVSYMNWYQQKPGQAPRRWIYDSSKLASGVPARFSGSGSGRDYTLTISSLEPEDFAVYYCQQWSRNPPTFGGGTKVEIK	label 0
CD3B2030 (scFv) scFv: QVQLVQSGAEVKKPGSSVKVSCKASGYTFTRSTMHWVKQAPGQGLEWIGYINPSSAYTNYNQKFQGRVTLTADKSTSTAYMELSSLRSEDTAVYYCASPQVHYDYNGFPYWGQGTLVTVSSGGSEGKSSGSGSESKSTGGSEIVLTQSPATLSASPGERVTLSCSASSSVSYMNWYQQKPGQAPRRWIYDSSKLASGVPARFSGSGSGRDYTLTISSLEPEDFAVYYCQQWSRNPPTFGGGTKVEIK	label 1
